The values you see were collected from the supplement of paper PMC10567573.

B1: BCL2L13 (parent)
chain: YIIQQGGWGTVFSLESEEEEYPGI

variants of: B1; test: protein stability index of a GFP-peptide fusion (GPS, HEK-293T) (PSI 1-6); higher = more stable; conditions: c terminus: a fixed tail appended;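 also: lentivirally expressed fusions sorted by FACS into six bins by GFP to DsRed ratio, PSI derived from sequencing read proportions per bin multiplied by bin number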
REPORTED_ENDPOINT: protein stability index
Answer with a bare number; do not write a unit.

>  <SEQ_TEXT>
YIIQQGGWGTVFSLESEEEEYPEI [G23E]

>  <protein stability index>
2.43

$$$$
>  <SEQ_TEXT>
YIIQQSGWGTVFSLESEEEEYPGI [G6S]

>  <protein stability index>
1.73

$$$$
>  <SEQ_TEXT>
YIIQQTGWGTVFSLESEEEEYPGI [G6T]

>  <protein stability index>
2.31

$$$$
>  <SEQ_TEXT>
YIIQQGGWGTWFSLESEEEEYPGI [V11W]

>  <protein stability index>
1.42

$$$$
>  <SEQ_TEXT>
YIIQQGGWGTVFSLESEEEEYPWI [G23W]

>  <protein stability index>
1.93

$$$$

Inquiry: Item YIIQQGAWGTVFSLESEEEEYPGI [G7A] has what recorded protein stability index?
Reply text: 2.35

Inquiry: Fill in: protein stability index of YIIQQGGWGTVFSPESEEEEYPGI [L14P] is ___
Reply text: 1.87

Inquiry: Give the measured protein stability index of YIIQQGGWGTVFSLEKEEEEYPGI [S16K] .
Reply text: 2.69
